Details: in acetone, 283.15 K
readout_type: solubility (mole fraction)

- mol: "O=C1C=CC(=O)O1"
  value_measured: 0.0136

====

Settings: in DMF, 298.15 K

- mol: "O=C1C=CC(=O)O1"
  solubility (mole fraction): 0.0707

====

Settings: in DMF, 323.15 K

- mol: "O=C1C=CC(=O)O1"
  solubility (mole fraction): 0.176

====

Settings: in methanol, 288.15 K

- mol: "O=C1C=CC(=O)O1"
  solubility (mole fraction): 0.0359

====

Settings: in acetic acid, 318.15 K

- mol: "O=C1C=CC(=O)O1"
  solubility (mole fraction): 0.119

====

Settings: in ethyl acetate, 283.15 K
readout_type: solubility (mole fraction)

- mol: "O=C1C=CC(=O)O1"
  readout_type: "solubility (mole fraction)"
  value_measured: 0.0125

====

Conditions: in ethyl acetate, 278.15 K
readout_type: solubility (mole fraction)

- mol: "O=C1C=CC(=O)O1"
  readout_type: "solubility (mole fraction)"
  value_measured: 0.00906

====

Details: in acetone, 313.15 K

- mol: "O=C1C=CC(=O)O1"
  solubility (mole fraction): 0.0768

====

Settings: in acetic acid, 293.15 K

- mol: "O=C1C=CC(=O)O1"
  solubility (mole fraction): 0.0369

====

Conditions: in acetonitrile, 323.15 K

- mol: "O=C1C=CC(=O)O1"
  solubility (mole fraction): 0.139

====

Conditions: in acetone, 298.15 K
readout_type: solubility (mole fraction)

- mol: "O=C1C=CC(=O)O1"
  value_measured: 0.0336

====

Settings: in methanol, 303.15 K
readout_type: solubility (mole fraction)

- mol: "O=C1C=CC(=O)O1"
  value_measured: 0.0719

====

Details: in DMF, 288.15 K

- mol: "O=C1C=CC(=O)O1"
  solubility (mole fraction): 0.0466

====

Settings: in DMF, 283.15 K

- mol: "O=C1C=CC(=O)O1"
  solubility (mole fraction): 0.0372

====

Details: in methanol, 323.15 K

- mol: "O=C1C=CC(=O)O1"
  solubility (mole fraction): 0.159

====

Conditions: in isopropanol, 313.15 K
readout_type: solubility (mole fraction)

- mol: "O=C1C=CC(=O)O1"
  readout_type: "solubility (mole fraction)"
  value_measured: 0.0552

====

Settings: in ethyl acetate, 298.15 K
readout_type: solubility (mole fraction)

- mol: "O=C1C=CC(=O)O1"
  value_measured: 0.0303

====

Conditions: in acetonitrile, 283.15 K

- mol: "O=C1C=CC(=O)O1"
  solubility (mole fraction): 0.0173

====

Conditions: in n-butanol, 283.15 K
readout_type: solubility (mole fraction)

- mol: "O=C1C=CC(=O)O1"
  value_measured: 0.00539

====

Details: in acetone, 288.15 K

- mol: "O=C1C=CC(=O)O1"
  solubility (mole fraction): 0.0191

====

Settings: in n-butanol, 278.15 K

- mol: "O=C1C=CC(=O)O1"
  solubility (mole fraction): 0.00359

====

Conditions: in n-butanol, 318.15 K

- mol: "O=C1C=CC(=O)O1"
  solubility (mole fraction): 0.0618

====

Conditions: in isopropanol, 298.15 K

- mol: "O=C1C=CC(=O)O1"
  solubility (mole fraction): 0.0241

====

Conditions: in acetonitrile, 288.15 K
readout_type: solubility (mole fraction)

- mol: "O=C1C=CC(=O)O1"
  value_measured: 0.0232

The measurements presented in this section are drawn from BigSolDB 2.1.
